test_summary: Cytotoxicity against human RPMI8402 cells after MTT assay
Type: functional, cell-based
condition_context: RPMI 8402
test_readout: log10(IC50) (log10 of the value in nM)
Answers are given as log10 of IC50 in nM.

What the record says about COc1cc2c(=O)n(CCN(CC#N)C(C)C)c3c4cc5c(cc4ncc3c2cc1OC)OCO5 : log10(IC50) is 0.30

Notebook: CCN(CC#N)CCn1c(=O)c2cc(OC)c(OC)cc2c2cnc3cc4c(cc3c21)OCO4 , log10(IC50) read as 0.00

Summary for this compound, CCOc1cc2c(=O)n(CCN(C)C)c3c4cc5c(cc4ncc3c2cc1OCC)OCO5 : log10(IC50) is 2.18

Memo: COc1cc2c(=O)n(CCN(C)CC(F)(F)F)c3c4cc5c(cc4ncc3c2cc1OC)OCO5 , reported log10(IC50): 2.40

Entry C#CCN(CCn1c(=O)c2cc(OC)c(OC)cc2c2cnc3cc4c(cc3c21)OCO4)C(C)C ; log10(IC50) = 1.81

// recorded log10(IC50) for CCN(CCn1c(=O)c2cc(OC)c(OC)cc2c2cnc3cc4c(cc3c21)OCO4)CC(F)(F)F : 2.85

# log10(IC50) (compound: C#CCN(CC)CCn1c(=O)c2cc(OC)c(OC)cc2c2cnc3cc4c(cc3c21)OCO4 ) is 1.23

log10(IC50) for C#CCN(C)CCn1c(=O)c2cc(OC)c(OC)cc2c2cnc3cc4c(cc3c21)OCO4 is 0.90

The recorded log10(IC50) for COc1cc2c(=O)n(CCN(C)CC#N)c3c4cc5c(cc4ncc3c2cc1OC)OCO5 is 0.60

The measured values listed here are drawn from ChEMBL document CHEMBL1142488.
